- System: METTL3 (Homo sapiens, UniProt Q86U44)
- Sequence (Q86U44 2-580 limits assumed): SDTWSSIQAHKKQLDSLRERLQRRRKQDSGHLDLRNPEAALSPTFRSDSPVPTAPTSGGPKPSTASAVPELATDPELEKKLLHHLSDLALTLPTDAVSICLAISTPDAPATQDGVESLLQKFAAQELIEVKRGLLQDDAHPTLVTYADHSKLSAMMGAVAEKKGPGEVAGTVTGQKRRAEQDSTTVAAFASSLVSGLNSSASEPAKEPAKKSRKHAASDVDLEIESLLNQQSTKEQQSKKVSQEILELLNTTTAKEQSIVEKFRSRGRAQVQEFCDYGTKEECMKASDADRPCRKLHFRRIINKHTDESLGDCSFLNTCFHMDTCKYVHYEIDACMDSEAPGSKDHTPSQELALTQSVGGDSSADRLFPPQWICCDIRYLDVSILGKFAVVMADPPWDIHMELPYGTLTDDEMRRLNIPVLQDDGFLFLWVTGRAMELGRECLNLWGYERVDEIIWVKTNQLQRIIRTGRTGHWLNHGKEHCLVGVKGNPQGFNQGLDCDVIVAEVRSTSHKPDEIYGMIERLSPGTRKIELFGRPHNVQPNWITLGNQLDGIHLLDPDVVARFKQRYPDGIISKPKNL
- Sequence (Q9HCE5 whole entry partner): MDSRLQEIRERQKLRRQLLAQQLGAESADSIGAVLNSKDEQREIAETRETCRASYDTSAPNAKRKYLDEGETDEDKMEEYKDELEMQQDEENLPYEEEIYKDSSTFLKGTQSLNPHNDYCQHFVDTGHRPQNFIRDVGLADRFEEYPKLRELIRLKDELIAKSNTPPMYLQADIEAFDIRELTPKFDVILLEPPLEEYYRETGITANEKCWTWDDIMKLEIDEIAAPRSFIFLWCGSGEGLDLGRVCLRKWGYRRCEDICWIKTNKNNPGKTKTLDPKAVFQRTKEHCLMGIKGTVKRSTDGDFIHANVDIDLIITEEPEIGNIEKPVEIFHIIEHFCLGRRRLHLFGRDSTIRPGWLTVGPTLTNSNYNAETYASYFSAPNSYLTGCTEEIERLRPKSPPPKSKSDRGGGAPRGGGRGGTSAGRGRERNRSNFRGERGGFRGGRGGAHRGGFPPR
- Protocol: Immunoblotting (Western blot) degradation of METTL3 in MV4-11 cells
- Type: cell-based
- Set-up: Following treatment, total cellular proteins were extracted using RIPA buffer; endogenous in cells; host or cells: MV4-11 (MV4.11) human AML cells, ATCC
- Run Parameters: MV4-11 cells, 0.3 µM, 24 h, immunoblotting
Value Type: % degradation in MV4-11 cells, 0.3 µM, METTL3 (%)
The reply should be a number in %, with the unit left off.

Solved cases (3 shown):
| Molecule | Units | Recorded Value |
| --- | --- | --- |
| CNc1cc(N2CCC3(CC2)CN(c2cc(F)c(CN4CCC(C)(C(=O)NCCCCCCCCNc5cccc6c5C(=O)N(C5CCC(=O)NC5=O)C6=O)CC4)cc2F)CC(=O)N3)ncn1 (stereo not shown) [Compound 5c] | % | 50 |
| CNc1cc(N2CCC3(CC2)CN(c2cc(F)c(CN4CCC(C)(C(=O)NCCCCCCCCCCNc5cccc6c5C(=O)N(C5CCC(=O)NC5=O)C6=O)CC4)cc2F)CC(=O)N3)ncn1 (stereo not shown) [Compound 5d] | % | 26 |
| CNc1cc(N2CCC3(CC2)CN(c2cc(F)c(CN4CCC(C)(C(=O)NCCCCNc5cccc6c5C(=O)N(C5CCC(=O)NC5=O)C6=O)CC4)cc2F)CC(=O)N3)ncn1 (stereo not shown) [Compound 5a] | % | 33 |

*Q* # input molecule: CNc1cc(N2CCC3(CC2)CN(c2cc(F)c(CN4CCC(C)(C(=O)NCCCCCCNc5cccc6c5C(=O)N(C5CCC(=O)NC5=O)C6=O)CC4)cc2F)CC(=O)N3)ncn1 (stereo not shown) [Compound 5b] ; wanted: its % degradation in MV4-11 cells, 0.3 µM, METTL3
*A* 55

---

Parameter: % reduction in MV4-11 cells, 0.3 µM, METTL3. Scope: all listed entries.
- System: METTL3 (Homo sapiens)
- Protocol: Immunoblotting (Western blot) degradation of METTL3 in MV4-11 cells
- Format: cell-based
- Design: Following treatment, total cellular proteins were extracted using RIPA buffer; endogenous in cells; host or cells: MV4-11 (MV4.11) human AML cells, ATCC
- Run Parameters: MV4-11 cells, 0.3 µM, 24 h, immunoblotting; nd = no degradation
Express your answer as a number followed by its unit.

As a guide, the following entries are already answered.
| Compound | Recorded Value |
| --- | --- |
| CC1(C)CCN(Cc2cc(F)c(N3CC(=O)NC4(CCN(c5cc(NCCCCCCCCC(=O)N6CCN(c7ccc8c(c7)C(=O)N(C7CCC(=O)NC7=O)C8=O)CC6)ncn5)CC4)C3)cc2F)CC1 (stereo not shown) | 38% |
| CC1(C)CCN(Cc2cc(F)c(N3CC(=O)NC4(CCN(c5cc(NCCCCC(=O)N6CCN(c7ccc8c(c7)C(=O)N(C7CCC(=O)NC7=O)C8=O)CC6)ncn5)CC4)C3)cc2F)CC1 (stereo not shown) | 14% |
| CC1(C)CCN(Cc2cc(F)c(N3CC(=O)NC4(CCN(c5cc(NCCCCCCCCC(=O)N6CCN(c7ccc8c(c7)CN(C7CCC(=O)NC7=O)C8=O)CC6)ncn5)CC4)C3)cc2F)CC1 (stereo not shown) | 52% |

Please turn your attention to the following entry.
*Q* Can you share its % reduction in MV4-11 cells, 0.3 µM, METTL3? I mean this compound: CC1(C)CCN(Cc2cc(F)c(N3CC(=O)NC4(CCN(c5cc(NCCCCCCC(=O)N6CCN(c7ccc8c(c7)C(=O)N(C7CCC(=O)NC7=O)C8=O)CC6)ncn5)CC4)C3)cc2F)CC1 (stereo not shown)
*A* 43%
